Subject Of Test: TRPM8 R842K (Mus musculus, UniProt Q8R4D5, R842K)
Construct: expressed in transfected cells; host or cells: HEK293T
Sequence (Q8R4D5 whole entry R842K): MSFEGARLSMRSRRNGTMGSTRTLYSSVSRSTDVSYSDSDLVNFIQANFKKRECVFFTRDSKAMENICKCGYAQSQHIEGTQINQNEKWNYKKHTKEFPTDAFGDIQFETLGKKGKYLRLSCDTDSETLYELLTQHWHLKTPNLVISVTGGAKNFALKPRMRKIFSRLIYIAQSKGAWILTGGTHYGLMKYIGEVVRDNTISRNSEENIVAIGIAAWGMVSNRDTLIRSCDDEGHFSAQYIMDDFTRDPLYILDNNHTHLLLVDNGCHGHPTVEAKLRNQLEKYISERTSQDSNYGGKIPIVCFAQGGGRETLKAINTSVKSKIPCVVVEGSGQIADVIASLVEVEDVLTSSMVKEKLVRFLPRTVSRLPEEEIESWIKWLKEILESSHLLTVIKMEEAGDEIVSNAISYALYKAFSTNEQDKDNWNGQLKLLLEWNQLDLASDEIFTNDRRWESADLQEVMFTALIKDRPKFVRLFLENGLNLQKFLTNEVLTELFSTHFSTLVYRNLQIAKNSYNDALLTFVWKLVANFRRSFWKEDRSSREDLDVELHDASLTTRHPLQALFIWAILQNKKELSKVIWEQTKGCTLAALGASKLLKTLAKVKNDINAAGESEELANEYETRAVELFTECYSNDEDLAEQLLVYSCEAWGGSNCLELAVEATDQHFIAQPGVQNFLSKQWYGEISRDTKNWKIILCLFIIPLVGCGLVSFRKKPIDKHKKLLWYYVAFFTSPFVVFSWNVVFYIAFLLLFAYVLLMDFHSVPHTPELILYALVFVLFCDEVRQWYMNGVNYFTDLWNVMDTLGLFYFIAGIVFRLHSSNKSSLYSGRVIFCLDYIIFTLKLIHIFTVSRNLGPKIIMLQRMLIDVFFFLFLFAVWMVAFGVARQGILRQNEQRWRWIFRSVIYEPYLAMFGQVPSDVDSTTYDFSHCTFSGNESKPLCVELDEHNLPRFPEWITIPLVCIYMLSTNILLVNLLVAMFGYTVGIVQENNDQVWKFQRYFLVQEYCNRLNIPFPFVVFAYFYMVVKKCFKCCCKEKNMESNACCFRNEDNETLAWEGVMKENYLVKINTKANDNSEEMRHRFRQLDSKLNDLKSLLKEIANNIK
Assay Details: whole-cell patch-clamp and thermodynamic mutant cycle analysis
Assay type: cell-based
Run Conditions: calculated from concentration–response curves, read-out: Kd, Ave
Observed Property: Kd (mM)
One number for each entry, in mM.

INSERT INTO assay_data (molecule, subject_of_test, assay_result) VALUES
  ('CC(C)[C@@H]1CC[C@@H](C)CC1=O [menthone, (−)-menthone]', 'TRPM8 R842K (Mus musculus, UniProt Q8R4D5, R842K)', 1.78);

Moving on to another molecule below.
Looking up CC(C)[C@@H]1CC[C@@H](C)C[C@H]1O [menthol, (−)-menthol] , I found its Kd recorded as 8.71
